targetOrSystem: McinOBP4-Wt (Macrocentrus cingulum)
runDescription: Competitive binding assay with 1-NPN as fluorescent reporter, McinOBP4-Wt
conditionParameters: recombinant McinOBP4-Wt, pH = 7.4, calculated from IC50; read-out: KD
pKd: −log10 of the molar value.
Label Satisfied when pKd is at or above 5; otherwise label Not satisfied.

compound: CCCCC(C)CC(C)C (stereo not drawn)
assignedClass: Not satisfied
--
compound: C=C(C)[C@H]1CC=C(C)CC1
assignedClass: Satisfied
--
compound: CC/C=C/CCOC(C)=O [Trans-3-Hexen-1-ol-Acetate]
assignedClass: Satisfied
--
compound: C=CC(O)CC (stereo not drawn)
assignedClass: Not satisfied
--
compound: C=CC(=C)CCC=C(C)C
assignedClass: Not satisfied
--
compound: CCCCCc1ccco1
assignedClass: Not satisfied
--
compound: C=C1CC/C=C(\C)CC[C@@H]2[C@@H]1CC2(C)C (relative stereo) [Trans Caryophelle]
assignedClass: Not satisfied
--
compound: C=C/C(C)=C/C/C=C(\C)CCC=C(C)C
assignedClass: Not satisfied

====

targetOrSystem: McinOBP4-M1 (Macrocentrus cingulum, UniProt A0A1S6PU99)
Sequence (A0A1S6PU99 23-134): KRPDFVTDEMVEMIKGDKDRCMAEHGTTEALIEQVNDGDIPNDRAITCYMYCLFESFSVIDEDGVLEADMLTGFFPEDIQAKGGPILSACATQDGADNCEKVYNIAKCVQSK
runDescription: Fluorescence binding of 1-NPN to C-terminal truncated mutant McinOBP4-M1
conditionParameters: McinOBP4-M1, pH 7.4; read-out: Dissociation constant (KD) of 1-NPN
readoutType: Kd (µM)

smilesEntry: c1ccc(Nc2cccc3ccccc23)cc1
unitAnnotation: µM
numericReadout: 6.99

====

targetOrSystem: McinOBP4-Wt (Macrocentrus cingulum, UniProt A0A1S6PU99)
Sequence (A0A1S6PU99 entry or part of it): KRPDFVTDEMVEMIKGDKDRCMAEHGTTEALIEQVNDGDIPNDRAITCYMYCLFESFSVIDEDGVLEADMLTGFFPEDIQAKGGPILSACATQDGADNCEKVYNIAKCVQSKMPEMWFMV
runDescription: Competitive binding assay with 1-NPN as fluorescent reporter, McinOBP4-Wt
conditionParameters: McinOBP4-Wt, pH 7.4; read-out: KD
pKd: −log10 of the molar value.
Measured pKd of individual entries

compound: CC/C=C/CCOC(C)=O [Trans-3-Hexen-1-ol-Acetate]
pKd: 5.16

compound: CCCCC/C=C/C=O [Trans-2-Octenal]
pKd: 4.93

compound: C=C(C)[C@H]1CC=C(C)CC1
pKd: 5.39

====

targetOrSystem: UniProtKB A0A1S6PU99
runDescription: Competitive binding assay with 1-NPN as fluorescent reporter, McinOBP4-Wt
pKd: −log10 of the molar value.
Reported pKd by item:

compound: CC1=CCC2CC1C2(C)C (stereo not drawn) [α-Pinene]
pKd: 4.58

compound: CC(=O)/C=C/C1C(C)=CCCC1(C)C (stereo not drawn) [α-Ionone]
pKd: 4.73

compound: CC(=O)/C=C/C1=C(C)CCCC1(C)C [β-Ionone]
pKd: 4.93

compound: CC/C=C\CCO [Cis-3-Hexen-1-ol]
pKd: 4.81

compound: CCC/C=C/CO [Trans-2-Hexen-1-ol]
pKd: 4.81

compound: C=CC(C)(O)CCC=C(C)C (centres unmarked) [Linalool]
pKd: 5.02

compound: C=C1CCC2CC1C2(C)C (stereo not drawn) [β-Pinene]
pKd: 4.83

compound: CCC/C=C/C=O [Trans-2-Hexen-1-al]
pKd: 4.89

====

Measured IC50, listed per entry for reference.
targetOrSystem: McinOBP4-Wt (Macrocentrus cingulum, UniProt A0A1S6PU99)
runDescription: Competitive binding assay with 1-NPN as fluorescent reporter, McinOBP4-Wt
readoutType: IC50 (µM)

molecule: CC(=O)/C=C/C1=C(C)CCCC1(C)C [β-Ionone]
numericReadout: 15.1

molecule: CC/C=C\CCO [Cis-3-Hexen-1-ol]
numericReadout: 19.9

molecule: CCC/C=C/CO [Trans-2-Hexen-1-ol]
numericReadout: 19.8

molecule: CC(=O)/C=C/C1C(C)=CCCC1(C)C (stereo not drawn) [α-Ionone]
numericReadout: 24.1

molecule: C=CC(C)(O)CCC=C(C)C (centres unmarked) [Linalool]
numericReadout: 12.3

molecule: C=C1CCC2CC1C2(C)C (stereo not drawn) [β-Pinene]
numericReadout: 18.8

molecule: CC1=CCC2CC1C2(C)C (stereo not drawn) [α-Pinene]
numericReadout: 34.2

molecule: CCC/C=C/C=O [Trans-2-Hexen-1-al]
numericReadout: 16.4
